# System name: Escherichia coli LpxH (UDP-2,3-diacylglucosamine hydrolase) (Escherichia coli (strain K12), UniProt P43341)
# Sequence (P43341 whole entry): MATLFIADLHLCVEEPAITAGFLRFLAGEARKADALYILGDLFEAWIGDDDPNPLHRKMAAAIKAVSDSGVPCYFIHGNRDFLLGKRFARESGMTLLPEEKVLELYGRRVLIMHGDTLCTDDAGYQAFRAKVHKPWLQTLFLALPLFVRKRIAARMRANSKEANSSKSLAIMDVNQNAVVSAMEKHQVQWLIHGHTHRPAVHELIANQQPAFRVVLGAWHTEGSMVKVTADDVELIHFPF
# Assay protocol: 50% Inhibitory Concentration (IC50) to LpxH, UMP/CMP-Glo Glycosyltransferase Assay kit
Property measured: log10(IC50) (log10 of the value in nM)
# log10 transformed; quantity=IC50; unit=nM

Endpoint output: log10(IC50) of NC1CC(=O)N(c2ccc(S(=O)(=O)N3CCN(c4cc(Oc5ccccc5)cc(Cl)n4)CC3)cc2)C1 (centres unmarked) [Example 72] . Value?
2.61

Check COc1cc(C(F)(F)c2ccccc2)nc(N2CCN(S(=O)(=O)c3ccc(N4CC(N)CC4=O)cc3)CC2)n1 (centres unmarked) [Example 82] too.
2.39

Check O=C1CC(NCCO)CN1c1ccc(S(=O)(=O)N2CCN(c3cc(C(F)(F)F)cc(Cl)n3)CC2)cc1 (centres unmarked) [Example 46] too.
0.96

Check NCCC1CN(c2ccc(S(=O)(=O)N3CCN(c4cc(C(F)(F)F)cc(Cl)n4)CC3)cc2)C(=O)O1 (centres unmarked) [Example 9] too.
1.39

Check CC(=O)NCC1CN(c2ccc(S(=O)(=O)N3CCN(c4cc(C(F)(F)F)cc(Cl)n4)CC3)cc2)C(=O)O1 (centres unmarked) [Example 4] too.
1.45

Check O=C1CC2(CNC2)CN1c1ccc(S(=O)(=O)N2CCN(c3cc(C(F)(F)F)cc(Cl)n3)CC2)cc1 [Example 12] too.
1.84

Check NCC1CN(c2ccc(S(=O)(=O)N3CCN(c4cc(C(F)(F)F)cc(Cl)n4)CC3)c(F)c2)C(=O)O1 (centres unmarked) [Example 64] too.
2.42

Check O=C1OC(CN2C[C@@H](O)[C@@H](O)C2)CN1c1ccc(S(=O)(=O)N2CCN(c3cc(C(F)(F)F)cc(Cl)n3)CC2)cc1 (some centres unmarked) [Example 30] too.
1.17

Check N[C@@H]1CC(=O)N(c2ccc(S(=O)(=O)N3CCN(c4cc(C(F)(F)[C@@H]5COCCO5)cc(Cl)n4)CC3)cc2)C1 [Example 102] too.
1.02

Check O=C1O[C@H]2CNC[C@H]2N1c1ccc(S(=O)(=O)N2CCN(c3cc(C(F)(F)F)cc(Cl)n3)CC2)cc1 [Example 15] too.
1.98

Check N[C@@H]1CC(=O)N(c2ccc(S(=O)(=O)N3CCN(c4cc(C(F)(F)[C@H]5CNCCO5)cc(Cl)n4)CC3)cc2)C1 [Example 105] too.
0.72

Check O=C1OC(CO)CN1c1ccc(S(=O)(=O)N2CCN(c3cc(C(F)(F)[C@@H]4CNCCO4)cc(Cl)n3)CC2)cc1 (some centres unmarked) [Example 110] too.
0.53

Check C=Cc1nc(N2CCN(S(=O)(=O)c3ccc(N4CC(N)CC4=O)cc3)CC2)cc(C(F)(F)c2ccccc2)n1 (centres unmarked) [Example 84] too.
1.16

Check O=C1O[C@@H]2CCCNC[C@@H]2N1c1ccc(S(=O)(=O)N2CCN(c3cc(C(F)(F)F)cc(Cl)n3)CC2)cc1 [Example 19] too.
1.53
